# inhibition per record follows
- system_name: Rhodopsin kinase GRK7 (Homo sapiens);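 note: reported figures are mean percent inhibition of GRK7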
- experimental_parameters: at 0.1 µM
readout_label: inhibition (%)

sample_smiles | unit_name | experimental_value
COC(=O)Nc1nc2ccc(Oc3ccc(NC(=O)Nc4cccc(Cl)c4)cc3)cc2[nH]1 | % | 3.03
COc1ccc(-c2cc3c(N)ncnc3o2)cc1 | % | 3.4
COc1ccc(-c2cc(-c3c[nH]nc3-c3ccccn3)ccn2)cc1 | % | 3.59

---

- system_name: Mitogen-activated protein kinase 13 (Homo sapiens) (UniProt O15264);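 note: mean inhibition of p38delta, screened as part of the GSK PKIS kinase inhibitor set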
- Sequence (O15264 whole entry): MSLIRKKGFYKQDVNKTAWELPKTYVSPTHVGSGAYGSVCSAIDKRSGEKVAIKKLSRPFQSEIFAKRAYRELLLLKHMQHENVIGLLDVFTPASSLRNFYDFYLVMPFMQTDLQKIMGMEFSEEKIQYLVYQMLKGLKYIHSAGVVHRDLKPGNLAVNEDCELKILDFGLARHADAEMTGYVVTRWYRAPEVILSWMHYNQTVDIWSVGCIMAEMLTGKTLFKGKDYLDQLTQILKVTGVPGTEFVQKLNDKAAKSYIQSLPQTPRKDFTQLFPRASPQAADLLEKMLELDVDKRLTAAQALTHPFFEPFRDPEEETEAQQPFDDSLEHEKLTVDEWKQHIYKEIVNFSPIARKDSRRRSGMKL
- experimental_parameters: at 1 µM
readout_label: inhibition (%)

sample_smiles | readout_label | experimental_value
COc1ccc(CNC(=O)c2ccc(-c3cc(-c4nnc(C)o4)ccc3C)cc2)cc1 | inhibition | 2.3
COc1cccc(-c2c[nH]c3c(N/N=C/c4ccncc4)ncnc23)c1 | inhibition | 38.2
NS(=O)(=O)c1ccc(N/N=C2\C(=O)Nc3ccc4ncccc4c32)cc1 | inhibition | 10
CCOc1ccc2c(-c3ccnc(Nc4cccc(C(F)(F)F)c4)n3)cnn2n1 | inhibition | 0.75
CCn1c(-c2nonc2N)nc2cnc(Oc3cccc(NC(=O)c4ccc(N(C)C)cc4)c3)cc21 | inhibition | 2.57
CCCN(CCS(C)(=O)=O)Cc1ccc(-c2ccc3ncnc(Nc4ccc(OCc5cccc(F)c5)c(Cl)c4)c3c2)o1 | inhibition | 2.64
Fc1ccc(-c2nn3ncccc3c2-c2ccnc(Nc3ccc4c(c3)OCCO4)n2)cc1 | inhibition | 6.19
COC(=O)Nc1nc2ccc(S(=O)(=O)c3ccc(NC(=O)Nc4cc(C(F)(F)F)ccc4F)cc3)cc2[nH]1 | inhibition | 2.66
FC(F)(F)c1cccc(-c2nn3ncccc3c2-c2ccnc(Nc3ccc4c(c3)OCCO4)n2)c1 | inhibition | 3.46
CS(=O)(=O)CCNCc1coc(-c2ccc3ncnc(Nc4ccc(OCc5ccccc5)cc4)c3c2)c1 | inhibition | 1.56
CN1CCC(n2cnc(-c3ccc(F)cc3)c2-c2ccnc(Nc3ccccc3)n2)CC1 | inhibition | 22.5
CN(C)CCOc1ccc(-c2nc(-c3ccncc3)c(-c3ccc4c(c3)CC/C4=N\O)[nH]2)cc1 | inhibition | 4.84
Fc1ccc(-c2nn3ccccc3c2-c2ccncc2)cc1 | inhibition | 0.46
NC(=O)c1sc(-n2cnc3ccc(C(F)(F)F)cc32)cc1OCc1ccccc1Br | inhibition | 3.69
O=C(O[C@H]1CN[C@H](C#Cc2cc3ncnc(Nc4ccc(Cc5ccccc5)cc4)c3s2)C1)N1CCOCC1 | inhibition | 0.36
COc1ccc2[nH]c3c4[nH]c5ccc(OC)cc5c4c4c(c3c2c1)C(=O)NC4=O | inhibition | 2.74
CCN1CCC(CC(=O)Nc2n[nH]c3nnc(-c4cccc(F)c4F)cc23)CC1 | inhibition | 0.01
CNC(=O)c1cccc(C#Cc2cncnc2Nc2ccc(OCc3cccc(F)c3)c(Cl)c2)c1 | inhibition | -0.49
Cc1cccc2c1NC(=O)/C2=N\Nc1ccc(S(N)(=O)=O)cc1 | inhibition | 3.48
Nc1nc(-c2ccc(F)cc2)c(-c2ccc3ncccc3n2)s1 | inhibition | 5.76
